Molecular target: Human complement C1s enzyme (Homo sapiens, UniProt P09871)
Test: Human C1s enzyme assay
Assay type: biochemical
Conditions: human complement C1s enzyme 1.16 nM, substrate Z-L-Lys-SBzl 100 μM, 5 min preincubation; read-out: IC50 (Stars), C1s Inhibiting Activity

Molecule: O=C(NCC(=O)N1C[C@H](OC(F)F)C[C@H]1C(=O)NCc1ccc2c(c1)NCC2)c1ccc2c(c1)Oc1ccccc1S2 [Compound 198]
IC50: > 1000 nM
--
Molecule: CC(C)(C)c1ccc(Oc2cccc(C(=O)NCC(=O)N3C[C@H](OC(F)F)C[C@H]3C(=O)NCc3cc4cnccc4[nH]3)c2)cc1 [Compound 273]
IC50: < 100 nM
--
Molecule: O=C(NCC(=O)N1CC2(C[C@H]1C(=O)NCc1cc3cnccc3[nH]1)OCCO2)c1ccc(C(=O)c2ccccc2)cc1 [Compound 33]
IC50: < 100 nM
--
Molecule: CC(c1cccc(F)c1)c1ccc(C(=O)NCC(=O)N2CC3(C[C@H]2C(=O)NCc2cc4cnccc4[nH]2)OCCO3)s1 (stereo partly shown) [Compound 357]
IC50: 100 to 1000 nM
--
Molecule: O=C(NCC(=O)N1C[C@H](OC(F)F)C[C@H]1C(=O)NCc1ccc2ncsc2c1)c1ccc2c(c1)Oc1ccccc1S2 [Compound 245]
IC50: > 1000 nM
--
Molecule: CO[C@@H]1C[C@@H](C(=O)N[C@H](C)c2cc3cnccc3[nH]2)N(C(=O)CNC(=O)c2ccc3c(c2)-c2ccccc2C3(F)F)C1 [Compound 71]
IC50: < 100 nM
--
Molecule: O=C(NCC(=O)N1C[C@H](OC(F)F)C[C@H]1C(=O)NCc1ccc2[nH]cnc2n1)c1ccc2c(c1)Oc1ccccc1S2 [Compound 258]
IC50: > 1000 nM
--
Molecule: C[C@@H](NC(=O)[C@@H]1CC(COCCCCN)CN1C(=O)CNC(=O)c1ccc2c(c1)Oc1ccccc1S2)c1cc2cnccc2[nH]1 (stereo partly shown) [Compound 288]
IC50: < 100 nM
--
Molecule: O=C(NCC(=O)N1C[C@H](OC(F)F)C[C@H]1C(=O)NCc1cc2cnccc2[nH]1)c1ccc(Oc2ccccc2)cc1 [Compound 18]
IC50: < 100 nM
--
Molecule: C[C@@]12C[C@@H]1N(C(=O)CNC(=O)c1ccc3c(c1)Oc1ccccc1S3)[C@H](C(=O)NCc1cc3cnccn3c1)C2 [Compound 271]
IC50: < 100 nM
--
Molecule: O=C(NCC(=O)N1CC2(C[C@H]1C(=O)NCc1cc3cnccn3c1)OCCO2)c1ccc2c(c1)Oc1ccccc1S2 [Compound 111]
IC50: < 100 nM
--
Molecule: C[C@@H](NC(=O)[C@@H]1C[C@@H](OC(F)F)CN1C(=O)CNC(=O)c1ccc(Oc2ccccc2)cc1)c1cc2cnccc2[nH]1 [Compound 39]
IC50: < 100 nM
--
Molecule: O=C(NCC(=O)N1CCC[C@H]1C(=O)NCc1cc2cnccc2[nH]1)c1ccc2c(c1)Oc1ccccc1S2 [Compound 188]
IC50: < 100 nM

* * *

Biological target: Human complement C1s enzyme (Homo sapiens)
Experiment: Human C1s enzyme assay
Format: biochemical
Conditions: human complement C1s enzyme 1.16 nM, substrate Z-L-Lys-SBzl 100 μM, 5 min preincubation; read-out: IC50 (Stars), C1s Inhibiting Activity
pIC50: −log10 of the molar value.
The compounds listed here are annotated with their pIC50.

Structure: C[C@H](NC(=O)[C@@H]1C[C@@H](OC(F)F)CN1C(=O)CNC(=O)c1ccc(Oc2ccccc2)cc1)c1cc2cnccc2[nH]1
Study target: Human complement C1s enzyme (Homo sapiens)
pIC50: 6.00 to 7.00
//
Structure: O=C(NCC(=O)N1CC2(C[C@H]1C(=O)NCc1cc3cnccc3[nH]1)OCCO2)c1ccc2oc3ccccc3c2c1
Study target: Human complement C1s enzyme (Homo sapiens)
pIC50: > 7.00
//
Structure: O=C(NCC(=O)N1CC[C@@H](O)[C@H]1C(=O)NCc1cc2cnccc2[nH]1)c1ccc(Oc2ccccc2)cc1
Study target: Human complement C1s enzyme (Homo sapiens)
pIC50: 6.00 to 7.00
//
Structure: C[C@@H](NC(=O)[C@@H]1C[C@@H](OC(F)F)CN1C(=O)CNC(=O)c1ccc(Oc2ccccc2)cc1)c1cc(B(O)O)cs1
Study target: Human complement C1s enzyme (Homo sapiens)
pIC50: < 6.00
//
Structure: O=C(NCC(=O)N1C[C@H](OC(F)F)C[C@H]1C(=O)NCc1cnc2c(c1)NCC2)c1ccc2c(c1)Oc1ccccc1S2
Study target: Human complement C1s enzyme (Homo sapiens)
pIC50: < 6.00
//
Structure: O=C(NCC(=O)N1C[C@H](OC(F)F)C[C@H]1C(=O)NCc1cc2cnccc2[nH]1)c1cccc(N2Cc3ccccc3C2)c1
Study target: Human complement C1s enzyme (Homo sapiens)
pIC50: > 7.00

* * *

The molecules listed here are annotated with their IC50.
Target: Human complement C1s enzyme (Homo sapiens, UniProt P09871)
Sequence (P09871 438-688 limits assumed): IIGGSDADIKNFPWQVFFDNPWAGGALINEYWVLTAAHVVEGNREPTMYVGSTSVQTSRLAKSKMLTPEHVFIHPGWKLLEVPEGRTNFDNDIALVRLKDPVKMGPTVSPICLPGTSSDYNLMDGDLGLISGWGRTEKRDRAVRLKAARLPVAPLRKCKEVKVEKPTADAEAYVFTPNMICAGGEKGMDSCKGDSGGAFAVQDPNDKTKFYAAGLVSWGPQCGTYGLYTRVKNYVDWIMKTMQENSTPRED
Sequence (P09871 16-437 partner limits assumed): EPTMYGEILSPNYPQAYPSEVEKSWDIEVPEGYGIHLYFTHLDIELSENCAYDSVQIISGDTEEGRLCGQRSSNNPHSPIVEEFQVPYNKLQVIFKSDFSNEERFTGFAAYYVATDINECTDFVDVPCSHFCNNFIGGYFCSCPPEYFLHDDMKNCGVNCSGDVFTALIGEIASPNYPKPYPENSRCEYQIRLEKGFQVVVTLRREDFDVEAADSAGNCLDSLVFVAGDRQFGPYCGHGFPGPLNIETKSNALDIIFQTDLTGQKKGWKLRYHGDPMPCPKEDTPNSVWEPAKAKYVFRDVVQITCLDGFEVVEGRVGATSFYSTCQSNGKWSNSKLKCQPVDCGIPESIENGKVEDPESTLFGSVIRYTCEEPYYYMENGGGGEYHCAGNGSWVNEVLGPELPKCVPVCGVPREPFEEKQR
Experiment: Human C1s enzyme assay
Assay type: biochemical
Conditions: human complement C1s enzyme 1.16 nM, substrate Z-L-Lys-SBzl 100 μM, 5 min preincubation; read-out: IC50 (Stars), C1s Inhibiting Activity
Observation type: IC50

Structure: O=C(NCC(=O)N1C[C@H](OC(F)F)C[C@H]1C(=O)NCc1cc2cnccc2[nH]1)c1cc(-c2ccccc2)cs1
Measured: < 0.1 µM
//
Structure: COC[C@@]12C[C@@H]1N(C(=O)CNC(=O)c1ccc3c(c1)Oc1ccccc1S3)[C@H](C(=O)N[C@H](C)c1cc3cnccc3[nH]1)C2
Measured: < 0.1 µM
//
Structure: C[C@@]12C[C@@H](C(=O)NCc3cc4cnccc4[nH]3)N(C(=O)CNC(=O)c3cccc(Oc4ccc(F)cc4)c3)[C@@H]1C2
Measured: 0.1 to 1 µM
//
Structure: COC[C@@]1(F)C[C@@H](C(=O)NCc2cc3cnccc3[nH]2)N(C(=O)CNC(=O)c2ccc3oc4ccccc4c3c2)C1
Measured: < 0.1 µM
//
Structure: O=C(NCC(=O)N1C[C@H](OC(F)F)C[C@H]1C(=O)NCc1ccc2[nH]ccc2n1)c1ccc2c(c1)Oc1ccccc1S2
Measured: > 1 µM
//
Structure: C[C@@H](NC(=O)[C@@H]1C[C@@H](OC(F)F)CN1C(=O)CNC(=O)c1ccc(-c2ccc(F)cc2F)cc1)c1cc2cnccc2[nH]1
Measured: < 0.1 µM

* * *

Target: Human complement C1s enzyme (Homo sapiens, UniProt P09871)
Sequence (P09871 438-688 limits assumed): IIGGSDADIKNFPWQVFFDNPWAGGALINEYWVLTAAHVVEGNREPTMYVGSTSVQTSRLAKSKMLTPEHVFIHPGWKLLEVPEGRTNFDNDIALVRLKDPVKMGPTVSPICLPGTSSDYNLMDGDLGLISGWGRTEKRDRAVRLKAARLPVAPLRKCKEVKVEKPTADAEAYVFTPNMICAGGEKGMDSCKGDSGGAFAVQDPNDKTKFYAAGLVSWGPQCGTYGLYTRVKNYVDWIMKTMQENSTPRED
Sequence (P09871 16-437 partner limits assumed): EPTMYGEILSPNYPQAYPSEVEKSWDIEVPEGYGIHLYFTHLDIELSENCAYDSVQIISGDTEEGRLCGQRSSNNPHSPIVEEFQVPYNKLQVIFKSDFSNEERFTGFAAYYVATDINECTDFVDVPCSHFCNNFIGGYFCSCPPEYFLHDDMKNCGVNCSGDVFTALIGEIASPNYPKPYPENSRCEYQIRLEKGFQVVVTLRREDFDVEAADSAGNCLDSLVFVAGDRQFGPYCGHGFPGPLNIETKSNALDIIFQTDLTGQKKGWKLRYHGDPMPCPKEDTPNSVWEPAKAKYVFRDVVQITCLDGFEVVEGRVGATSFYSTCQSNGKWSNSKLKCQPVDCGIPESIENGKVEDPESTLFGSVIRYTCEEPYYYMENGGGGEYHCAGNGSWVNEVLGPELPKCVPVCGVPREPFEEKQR
Experiment: Human C1s enzyme assay
Assay type: biochemical
Settings: human complement C1s enzyme 1.16 nM, substrate Z-L-Lys-SBzl 100 μM, 5 min preincubation; read-out: IC50 (Stars), C1s Inhibiting Activity
pIC50: −log10 of the molar value.

Structure: Cc1ccc2cc(C(=O)NCC(=O)N3CC4(C[C@H]3C(=O)NCc3cc5cnccc5[nH]3)OCCO4)sc2c1
Study target: Human complement C1s enzyme (Homo sapiens, UniProt P09871)
pIC50: 6.00 to 7.00
//
Structure: O=C(NCC(=O)N1C[C@@](F)(CF)C[C@H]1C(=O)NCc1cc2cnccc2[nH]1)c1ccc2c(c1)Oc1ccccc1S2
Study target: Human complement C1s enzyme (Homo sapiens, UniProt P09871)
pIC50: > 7.00
//
Structure: O=C(NCC(=O)N1C[C@H](OC(F)F)C[C@H]1C(=O)NCc1cc2cnccc2s1)c1cccc(Oc2ccc(F)cc2)c1
Study target: Human complement C1s enzyme (Homo sapiens, UniProt P09871)
pIC50: > 7.00
//
Structure: COC[C@@H]1C[C@@H](C(=O)N[C@H](C)c2cc3cnccc3[nH]2)N(C(=O)CNC(=O)c2ccc3c(c2)Oc2ccccc2S3)C1
Study target: Human complement C1s enzyme (Homo sapiens, UniProt P09871)
pIC50: > 7.00
//
Structure: O=C(NCC(=O)N1C[C@H](OC(F)F)C[C@H]1C(=O)NCc1ccc2c(n1)CCN2)c1ccc2c(c1)Oc1ccccc1S2
Study target: Human complement C1s enzyme (Homo sapiens, UniProt P09871)
pIC50: < 6.00
//
Structure: O=C(NCc1cc2cnccc2[nH]1)[C@@H]1C[C@@H](OC(F)F)CN1C(=O)CN1Cc2ncc(-c3ccc(F)cc3F)cc2C1=O
Study target: Human complement C1s enzyme (Homo sapiens, UniProt P09871)
pIC50: < 6.00
